SYSTEM_UNDER_TEST: NACHT, LRR and PYD domains-containing protein 3 (Homo sapiens, UniProt Q96P20)
Sequence (Q96P20 whole entry, the tested form may be a part): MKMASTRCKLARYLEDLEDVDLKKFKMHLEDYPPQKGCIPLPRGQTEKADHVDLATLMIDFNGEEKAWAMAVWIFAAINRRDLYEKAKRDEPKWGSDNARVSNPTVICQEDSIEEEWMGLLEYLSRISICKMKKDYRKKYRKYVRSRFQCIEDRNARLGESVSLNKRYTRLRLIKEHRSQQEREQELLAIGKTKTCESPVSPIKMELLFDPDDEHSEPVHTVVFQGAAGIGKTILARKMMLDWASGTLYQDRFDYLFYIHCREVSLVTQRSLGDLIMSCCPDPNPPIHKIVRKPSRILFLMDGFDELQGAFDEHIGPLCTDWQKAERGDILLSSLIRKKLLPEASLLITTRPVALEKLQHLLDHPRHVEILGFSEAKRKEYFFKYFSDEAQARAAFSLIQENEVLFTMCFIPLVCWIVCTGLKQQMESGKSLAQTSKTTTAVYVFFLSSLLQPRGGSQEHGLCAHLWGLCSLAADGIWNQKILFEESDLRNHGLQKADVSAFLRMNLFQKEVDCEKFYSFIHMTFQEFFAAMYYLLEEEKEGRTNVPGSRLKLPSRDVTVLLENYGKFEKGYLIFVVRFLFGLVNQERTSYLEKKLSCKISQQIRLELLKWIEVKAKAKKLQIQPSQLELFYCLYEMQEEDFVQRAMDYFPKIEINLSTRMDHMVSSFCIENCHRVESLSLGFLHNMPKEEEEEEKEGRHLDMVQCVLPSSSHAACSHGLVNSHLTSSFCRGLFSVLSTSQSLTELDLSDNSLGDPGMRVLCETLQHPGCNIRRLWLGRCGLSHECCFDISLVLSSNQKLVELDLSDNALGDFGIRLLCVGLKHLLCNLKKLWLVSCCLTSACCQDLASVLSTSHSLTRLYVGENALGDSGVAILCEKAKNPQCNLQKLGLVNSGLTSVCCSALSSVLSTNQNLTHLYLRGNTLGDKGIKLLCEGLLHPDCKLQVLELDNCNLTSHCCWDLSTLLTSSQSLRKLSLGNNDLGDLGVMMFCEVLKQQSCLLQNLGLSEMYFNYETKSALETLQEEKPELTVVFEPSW
TEST_DESCRIPTION: Inhibition of NLRP3 inflammasome in human THP1 cells assessed as reduction in MSU-induced IL-1beta production preincubated for 1 hr followed by MSU stimulation measured after 6 hrs
IC50: recorded values

SMILES_DATA | IC50 (µM)
COc1ccc(C/C(=N\O)c2nc3ccc(Cl)cc3o2)cc1 | 5.72
COc1ccccc1C(=O)O/N=C(\C)c1nc2ccccc2o1 | 39.5
O=C(/C=C/c1ccc(O)cc1)c1ccc(O)cc1O | 1.54
COc1ccc(C/C(=N\O)c2nc3ccc(OC)cc3o2)cc1 | 1.22

* * *

SYSTEM_UNDER_TEST: Xanthine dehydrogenase/oxidase (Homo sapiens, UniProt P47989)
Sequence (P47989 whole entry): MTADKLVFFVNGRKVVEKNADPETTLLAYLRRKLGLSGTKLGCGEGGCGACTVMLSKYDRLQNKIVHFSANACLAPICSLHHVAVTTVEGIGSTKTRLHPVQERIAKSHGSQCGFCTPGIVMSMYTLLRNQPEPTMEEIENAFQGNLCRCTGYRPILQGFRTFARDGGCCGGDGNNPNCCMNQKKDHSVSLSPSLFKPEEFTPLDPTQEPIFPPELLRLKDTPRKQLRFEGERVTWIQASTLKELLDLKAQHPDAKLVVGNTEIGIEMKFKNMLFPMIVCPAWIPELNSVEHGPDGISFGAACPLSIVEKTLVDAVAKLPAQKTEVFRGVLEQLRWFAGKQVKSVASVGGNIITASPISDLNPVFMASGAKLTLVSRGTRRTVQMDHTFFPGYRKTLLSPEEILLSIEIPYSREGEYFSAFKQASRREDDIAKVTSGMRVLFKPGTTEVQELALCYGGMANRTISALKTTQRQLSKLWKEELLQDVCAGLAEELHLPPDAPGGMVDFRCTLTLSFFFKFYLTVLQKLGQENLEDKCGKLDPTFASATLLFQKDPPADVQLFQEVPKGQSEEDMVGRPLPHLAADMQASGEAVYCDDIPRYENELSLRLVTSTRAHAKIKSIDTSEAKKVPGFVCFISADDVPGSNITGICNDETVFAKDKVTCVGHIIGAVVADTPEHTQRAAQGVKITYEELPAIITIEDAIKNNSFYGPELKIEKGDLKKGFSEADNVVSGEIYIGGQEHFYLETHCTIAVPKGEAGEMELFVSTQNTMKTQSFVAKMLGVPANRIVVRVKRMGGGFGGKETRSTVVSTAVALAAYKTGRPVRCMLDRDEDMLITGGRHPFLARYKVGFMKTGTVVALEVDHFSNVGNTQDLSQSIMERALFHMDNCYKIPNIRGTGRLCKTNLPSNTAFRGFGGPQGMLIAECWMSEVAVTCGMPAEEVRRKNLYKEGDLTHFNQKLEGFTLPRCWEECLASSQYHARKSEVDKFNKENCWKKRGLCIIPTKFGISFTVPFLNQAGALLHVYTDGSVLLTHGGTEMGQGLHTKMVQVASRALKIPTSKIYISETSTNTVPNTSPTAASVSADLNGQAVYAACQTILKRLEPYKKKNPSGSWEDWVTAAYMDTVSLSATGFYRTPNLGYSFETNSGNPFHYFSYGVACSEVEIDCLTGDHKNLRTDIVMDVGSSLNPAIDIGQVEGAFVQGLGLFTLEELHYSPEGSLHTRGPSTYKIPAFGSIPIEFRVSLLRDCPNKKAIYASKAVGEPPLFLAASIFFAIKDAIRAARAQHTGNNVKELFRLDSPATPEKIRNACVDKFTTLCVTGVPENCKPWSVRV
pKi: −log10 of the molar value.
MEASURED_ATTRIBUTE: pKi

SMILES_DATA | MEASURED_ATTRIBUTE | RESULT_VALUE
COc1ccc(C/C(=N\O)c2nc3ccc(OC)cc3o2)cc1 | pKi | 5.54

* * *

We begin with a simple list: items and their reported log10(IC50).
SYSTEM_UNDER_TEST: Toll-like receptor 4 (Homo sapiens, UniProt O00206)
Sequence (O00206 whole entry): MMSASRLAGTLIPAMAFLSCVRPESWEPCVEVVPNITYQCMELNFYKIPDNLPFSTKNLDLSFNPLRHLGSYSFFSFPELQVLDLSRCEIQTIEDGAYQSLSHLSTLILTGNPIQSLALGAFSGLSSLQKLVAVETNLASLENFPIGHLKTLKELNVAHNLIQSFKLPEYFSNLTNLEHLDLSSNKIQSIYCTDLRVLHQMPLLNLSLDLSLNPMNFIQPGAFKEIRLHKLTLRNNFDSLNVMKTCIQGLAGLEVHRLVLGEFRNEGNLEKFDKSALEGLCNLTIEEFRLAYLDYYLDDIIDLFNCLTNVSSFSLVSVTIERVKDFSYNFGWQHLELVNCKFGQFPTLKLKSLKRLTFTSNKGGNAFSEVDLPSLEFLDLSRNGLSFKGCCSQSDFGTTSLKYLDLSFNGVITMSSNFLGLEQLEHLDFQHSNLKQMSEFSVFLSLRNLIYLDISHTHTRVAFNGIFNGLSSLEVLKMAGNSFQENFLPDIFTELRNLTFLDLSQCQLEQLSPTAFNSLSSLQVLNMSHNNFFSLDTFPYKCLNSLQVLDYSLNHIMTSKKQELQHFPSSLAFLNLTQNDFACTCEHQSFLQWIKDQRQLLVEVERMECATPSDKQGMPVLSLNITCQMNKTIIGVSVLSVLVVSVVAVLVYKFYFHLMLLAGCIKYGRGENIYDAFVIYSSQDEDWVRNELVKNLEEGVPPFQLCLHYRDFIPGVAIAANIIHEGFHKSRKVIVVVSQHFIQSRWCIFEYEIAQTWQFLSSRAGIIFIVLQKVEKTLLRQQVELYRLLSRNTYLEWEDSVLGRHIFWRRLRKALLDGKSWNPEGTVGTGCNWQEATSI
TEST_DESCRIPTION: Inhibition of human TLR4 signaling expressed in HEK-Blue cells co-expressing MD2/CD14 assessed as reduction in LPS-induced NF-kappaB activation-mediated SEAP production preincubated for 2 hrs followed by LPS stimulation for 20 hrs by colorimetric assay
MEASURED_ATTRIBUTE: log10(IC50) (log10 of the value in µM)

COMPOUND | log10(IC50)
COc1ccc(C/C(=N\O)c2nc3ccc(Cl)cc3o2)cc1 | 0.73
COc1ccccc1C(=O)O/N=C(\C)c1nc2ccccc2o1 | 1.41
COc1ccc(C/C(=N\O)c2nc3ccc(OC)cc3o2)cc1 | -0.27
Cc1ccc2oc(/C(Cc3ccc(F)cc3)=N/O)nc2c1 | 1.66
CCOC(=O)C1=CCCC[C@H]1S(=O)(=O)Nc1ccc(F)cc1Cl [RESATORVID] | -0.17
Cc1ccc2nc(/C(Cc3ccccc3)=N/O)oc2c1 | 1.29

* * *

This document collects IC50 values reported for Xanthine dehydrogenase/oxidase (Homo sapiens, UniProt P47989).

SMILES_DATA | IC50
O/N=C(\Cc1ccc(F)cc1)c1nc2ccc(Cl)cc2o1 | > 100 µM
O/N=C(\Cc1ccc(F)cc1)c1nc2cc(Cl)ccc2o1 | > 100 µM

Each recorded value in this set is attributed to ChEMBL document CHEMBL4219086.
